Catalogue of IC50 at 48 h values
Test Name: MTT cytotoxicity assay, IOSE144 normal cells
Format: cell-based, human
Test Parameters: human, IOSE144 ovarian epithelial cells (normal cell line); IOSE144 normal cells, MTT, 48 h; read-out: IC50
Protocol: In the study, five cancer cell lines (human colon cancer cells (HT-29), gastric cancer cells (BGC-823), cervical cancer cells (Hela), human breast cancer cells (MCF-7), and human lung cancer cells A549)), and two normal cell lines (human gastric epithelial cells (GES-1) and human ovarian epithelial cells (IOSE144)) were used for the evaluation of biological activity. […] Cell viability was measured using the MTT assay. […]

INPUT: What does the data say about its IC50 at 48 h? Entry: CC1(C)CCC[C@](C)([C@H]2CC[C@]3(C)[C@@H]2[C@H](O)C[C@@H]2[C@@]4(C)CC[C@H](O)C(C)(C)[C@@H]4CC[C@]23C)O1 [PD, panaxadiol, reference compound]
OUTPUT: > 100 µM

INPUT: What does the data say about its IC50 at 48 h? Entry: COC(C)(C)CCC[C@@](C)(O)C1CC[C@]2(C)C1[C@H](O)CC1[C@@]3(C)CC[C@H](O)C(C)(C)C3CC[C@]12C (some centres unmarked) [AD-1, 25-methoxyprotopanaxadiol, reference compound]
OUTPUT: > 100 µM

INPUT: What does the data say about its IC50 at 48 h? Entry: O=C(O)c1ccccc1O [Salicylic acid, reference compound]
OUTPUT: > 100 µM

INPUT: What does the data say about its IC50 at 48 h? Entry: CC(C)(O)CCC[C@@](C)(O)C1CC[C@]2(C)C1[C@H](O)CC1[C@@]3(C)CC[C@H](O)C(C)(C)C3CC[C@]12C (some centres unmarked) [AD-2, 25-hydroxyprotopanaxadiol, reference compound]
OUTPUT: > 100 µM

INPUT: What does the data say about its IC50 at 48 h? Entry: CC(=O)Oc1ccccc1C(=O)O [Acetyl-salicylic acid, reference compound]
OUTPUT: > 100 µM
